Below, each entry is listed with its recorded CC50 at 72 h.
# PROTOCOL DETAILS: Cytotoxicity assay (CellTiter-Glo)
# Assay type: cell-based
# CONDITION: human; toxicity to the cells; 72 h incubation; CellTiter-Glo cell viability
Give your result in µM as a bare value.

The examples below pair each entry with its known result.
| COMPOUND | MEASURED VALUE |
| --- | --- |
| COc1nc(N)nc2c1nc(I)n2[C@@H]1O[C@H](COP(=O)(N[C@H](C(=O)OCc2ccccc2)C(C)C)Oc2cccc3ccccc23)[C@@H](O)[C@@]1(C)O (stereo partly drawn) | 25 |
| COc1nc(N)nc2c1nc(I)n2[C@@H]1O[C@H](COP(=O)(N[C@@H](C)C(=O)OC2CCCCC2)Oc2cccc3ccccc23)[C@@H](O)[C@@]1(C)O (stereo partly drawn) | 11 |

# evaluate next
## Input For the compound COc1nc(N)nc2c1nc(I)n2[C@@H]1O[C@H](COP(=O)(N[C@@H](C)C(=O)OC2CCOCC2)Oc2cccc3ccccc23)[C@@H](O)[C@@]1(C)O (stereo partly drawn) , give its reported CC50 at 72 h.
## Output 26

###

# Test system: HCV replicon (Genotype 1b)
# PROTOCOL DETAILS: Luciferase genotype 1b replicon potency assay
# Format: cell-based
# CONDITION: Hepatitis C virus, Huh-7; luciferase-reporter genotype 1b subgenomic replicon cell line (Huh7); Renilla luciferase reporter activity
RECORDED METRIC: IC50 (nM)
Give your result in nM as a bare value.

The examples below pair each entry with its known result.
| MOLECULE | SYSTEM NAME | MEASURED VALUE |
| --- | --- | --- |
| COc1nc(N)nc2c1nc(Br)n2[C@@H]1O[C@H](COP(=O)(N[C@@H](C)C(=O)OCC(C)(C)C)Oc2cccc3ccccc23)[C@@H](O)[C@@]1(C)O (some centres unmarked) [Example 13] | HCV replicon (Genotype 1b) | 15000 |
| CCCOC(=O)[C@H](C)NP(=O)(OC[C@H]1O[C@@H](n2c(I)nc3c(OC)nc(N)nc32)[C@](C)(O)[C@@H]1O)Oc1cccc2ccccc12 (some centres unmarked) [Example 9] | HCV replicon (Genotype 1b) | 9 |
| COc1nc(N)nc2c1nc(I)n2[C@@H]1O[C@H](COP(=O)(N[C@@H](C)C(=O)OCCC(C)(C)C)N[C@@H](C)C(=O)OCCC(C)(C)C)[C@@H](O)[C@@]1(C)O [Example 22] | HCV replicon (Genotype 1b) | 72 |
| COc1nc(N)nc2c1nc(I)n2[C@@H]1O[C@H](COP(=O)(N[C@@H](C)C(=O)OC2CCCCC2)Oc2cccc3ccccc23)[C@@H](O)[C@@]1(C)O (some centres unmarked) [Example 17] | HCV replicon (Genotype 1b) | 16 |
| COc1nc(N)nc2c1nc(I)n2[C@@H]1O[C@H](COP(=O)(N[C@@H](C)C(=O)OCc2ccc(F)cc2F)Oc2cccc3ccccc23)[C@@H](O)[C@@]1(C)O (some centres unmarked) [Example 8] | HCV replicon (Genotype 1b) | 9 |
| COc1nc(N)nc2c1nc(I)n2[C@@H]1O[C@H](COP(=O)(N[C@H](C(=O)OCc2ccccc2)C(C)C)Oc2cccc3ccccc23)[C@@H](O)[C@@]1(C)O (some centres unmarked) [Example 20] | HCV replicon (Genotype 1b) | 140 |
| COc1nc(N)nc2c1nc(I)n2[C@@H]1O[C@H](COP(=O)(N[C@@H](CCSC)C(=O)OCc2ccccc2)Oc2cccc3ccccc23)[C@@H](O)[C@@]1(C)O (some centres unmarked) [Example 19] | HCV replicon (Genotype 1b) | 34 |
| COc1nc(N)nc2c1nc(I)n2[C@@H]1O[C@H](COP(=O)(N[C@@H](C)C(=O)OC2CCCCC2)N[C@@H](C)C(=O)OC2CCCCC2)[C@@H](O)[C@@]1(C)O [Example 26] | HCV replicon (Genotype 1b) | 130 |

## Input For the molecule COc1nc(N)nc2c1nc(I)n2[C@@H]1O[C@H](COP(=O)(N[C@@H](C)C(=O)OCc2ccccc2)Oc2cccc3ccccc23)[C@@H](O)[C@@]1(C)O (some centres unmarked) [Example 7] , give its reported IC50.
## Output 31
